- protocol description: Inhibitory activity against IMP-1 metallo-beta-lactamase (MBL)
metric: IC50 (µM)

{"smiles": "O=C(O)[C@H](S)Cc1ccc2oc3ccccc3c2c1", "metric": "IC50", "recorded value": 0.023}
{"smiles": "C/C=C/C(=O)N[C@H](C)C(=O)S[C@H](Cc1ccc(-c2ccccc2)cc1)C(=O)O", "metric": "IC50", "recorded value": 33}
{"smiles": "CCC(=O)N[C@H](C)C(=O)S[C@H](Cc1ccc(-c2ccccc2)cc1)C(=O)O", "metric": "IC50", "recorded value": 9.5}
{"smiles": "C[C@@H](NC(=O)CCCC(=O)O)C(=O)S[C@H](Cc1ccc(-c2ccccc2)cc1)C(=O)O", "metric": "IC50", "recorded value": 91}
{"smiles": "O=C(S[C@H](Cc1ccc2oc3ccccc3c2c1)C(=O)O)c1ccccc1", "metric": "IC50", "recorded value": 0.0013}
{"smiles": "CC(C)C(=O)N[C@H](C)C(=O)S[C@H](Cc1ccc(-c2ccccc2)cc1)C(=O)O", "metric": "IC50", "recorded value": 9.7}
{"smiles": "C[C@@H](NC(=O)/C=C/c1ccccc1)C(=O)S[C@H](Cc1ccc(-c2ccccc2)cc1)C(=O)O", "metric": "IC50", "recorded value": 11}
{"smiles": "CC(=O)S[C@H](Cc1ccc2oc3ccccc3c2c1)C(=O)O", "metric": "IC50", "recorded value": 0.045}
{"smiles": "CC(=O)S[C@H](Cc1ccccc1)C(=O)O", "metric": "IC50", "recorded value": 12}
{"smiles": "C[C@@H](NC(=O)COc1ccccc1)C(=O)S[C@H](Cc1ccc(-c2ccccc2)cc1)C(=O)O", "metric": "IC50", "recorded value": 1}
